Readings of MIC for the listed compounds
# System: Staph.aureus A 2000
# assay-notes: agar serial dilution test
# Format: cell-based, Staphylococcus aureus
# test-context: Staphylococcus aureus, A2000, 24 h, agar serial dilution, 24 hours, 37° C.; read-out: minimal inhibitory concentration (MIC)
Response body: numeric value in µg/mL, unit text excluded.

Sample answers from the record:
[[record]]
compound = "CCc1noc(C(C)C(=O)N[C@@H]2C(=O)N3C(C(=O)O)=C(COC(C)=O)CS[C@H]23)n1 (mixture of isomers) [Example 11K]"
parameter = "MIC"
result = 1.5

[[record]]
compound = "CC(=O)OCC1=C(C(=O)O)N2C(=O)[C@@H](NC(=O)Cc3noc(Cc4ccccc4)n3)[C@H]2SC1"
parameter = "MIC"
result = 0.25

[[record]]
compound = "Cc1nc(CC(=O)N[C@@H]2C(=O)N3C(C(=O)O)=C(CN=[N+]=[N-])CS[C@H]23)no1"
parameter = "MIC"
result = 1.5

[[record]]
compound = "CC(=O)OCC1=C(C(=O)O)N2C(=O)[C@@H](NC(=O)C(C)c3nc(C)no3)[C@H]2SC1 (mixture of isomers) [Example 11I]"
parameter = "MIC"
result = 1.5

[[record]]
compound = "CC1(C)S[C@@H]2[C@H](NC(=O)Cc3nc(-c4c(Cl)cccc4Cl)no3)C(=O)N2[C@H]1C(=O)O [Example 11A]"
parameter = "MIC"
result = 3

[[record]]
compound = "Cc1noc(C(C)C(=O)N[C@@H]2C(=O)N3[C@@H]2SC(C)(C)[C@@H]3C(=O)O)n1 (mixture of isomers) [Example 11H]"
parameter = "MIC"
result = 6


Kindly consider the entry below.
[ask] Fill blank: measured MIC of the compound `C=CCNC(=O)Cc1nc(CC(=O)N[C@@H]2C(=O)N3C(C(=O)O)=C(COC(C)=O)CS[C@H]23)no1` is ____.
[reply] 3

Data provenance is patent US4160829A.
